Every entry's value here was drawn from patent US9000174B2.

target.or.test.system: N-type calcium channel (NTCC) (Homo sapiens)
Construct: endogenous in cells
Sequence (Q00975 whole entry): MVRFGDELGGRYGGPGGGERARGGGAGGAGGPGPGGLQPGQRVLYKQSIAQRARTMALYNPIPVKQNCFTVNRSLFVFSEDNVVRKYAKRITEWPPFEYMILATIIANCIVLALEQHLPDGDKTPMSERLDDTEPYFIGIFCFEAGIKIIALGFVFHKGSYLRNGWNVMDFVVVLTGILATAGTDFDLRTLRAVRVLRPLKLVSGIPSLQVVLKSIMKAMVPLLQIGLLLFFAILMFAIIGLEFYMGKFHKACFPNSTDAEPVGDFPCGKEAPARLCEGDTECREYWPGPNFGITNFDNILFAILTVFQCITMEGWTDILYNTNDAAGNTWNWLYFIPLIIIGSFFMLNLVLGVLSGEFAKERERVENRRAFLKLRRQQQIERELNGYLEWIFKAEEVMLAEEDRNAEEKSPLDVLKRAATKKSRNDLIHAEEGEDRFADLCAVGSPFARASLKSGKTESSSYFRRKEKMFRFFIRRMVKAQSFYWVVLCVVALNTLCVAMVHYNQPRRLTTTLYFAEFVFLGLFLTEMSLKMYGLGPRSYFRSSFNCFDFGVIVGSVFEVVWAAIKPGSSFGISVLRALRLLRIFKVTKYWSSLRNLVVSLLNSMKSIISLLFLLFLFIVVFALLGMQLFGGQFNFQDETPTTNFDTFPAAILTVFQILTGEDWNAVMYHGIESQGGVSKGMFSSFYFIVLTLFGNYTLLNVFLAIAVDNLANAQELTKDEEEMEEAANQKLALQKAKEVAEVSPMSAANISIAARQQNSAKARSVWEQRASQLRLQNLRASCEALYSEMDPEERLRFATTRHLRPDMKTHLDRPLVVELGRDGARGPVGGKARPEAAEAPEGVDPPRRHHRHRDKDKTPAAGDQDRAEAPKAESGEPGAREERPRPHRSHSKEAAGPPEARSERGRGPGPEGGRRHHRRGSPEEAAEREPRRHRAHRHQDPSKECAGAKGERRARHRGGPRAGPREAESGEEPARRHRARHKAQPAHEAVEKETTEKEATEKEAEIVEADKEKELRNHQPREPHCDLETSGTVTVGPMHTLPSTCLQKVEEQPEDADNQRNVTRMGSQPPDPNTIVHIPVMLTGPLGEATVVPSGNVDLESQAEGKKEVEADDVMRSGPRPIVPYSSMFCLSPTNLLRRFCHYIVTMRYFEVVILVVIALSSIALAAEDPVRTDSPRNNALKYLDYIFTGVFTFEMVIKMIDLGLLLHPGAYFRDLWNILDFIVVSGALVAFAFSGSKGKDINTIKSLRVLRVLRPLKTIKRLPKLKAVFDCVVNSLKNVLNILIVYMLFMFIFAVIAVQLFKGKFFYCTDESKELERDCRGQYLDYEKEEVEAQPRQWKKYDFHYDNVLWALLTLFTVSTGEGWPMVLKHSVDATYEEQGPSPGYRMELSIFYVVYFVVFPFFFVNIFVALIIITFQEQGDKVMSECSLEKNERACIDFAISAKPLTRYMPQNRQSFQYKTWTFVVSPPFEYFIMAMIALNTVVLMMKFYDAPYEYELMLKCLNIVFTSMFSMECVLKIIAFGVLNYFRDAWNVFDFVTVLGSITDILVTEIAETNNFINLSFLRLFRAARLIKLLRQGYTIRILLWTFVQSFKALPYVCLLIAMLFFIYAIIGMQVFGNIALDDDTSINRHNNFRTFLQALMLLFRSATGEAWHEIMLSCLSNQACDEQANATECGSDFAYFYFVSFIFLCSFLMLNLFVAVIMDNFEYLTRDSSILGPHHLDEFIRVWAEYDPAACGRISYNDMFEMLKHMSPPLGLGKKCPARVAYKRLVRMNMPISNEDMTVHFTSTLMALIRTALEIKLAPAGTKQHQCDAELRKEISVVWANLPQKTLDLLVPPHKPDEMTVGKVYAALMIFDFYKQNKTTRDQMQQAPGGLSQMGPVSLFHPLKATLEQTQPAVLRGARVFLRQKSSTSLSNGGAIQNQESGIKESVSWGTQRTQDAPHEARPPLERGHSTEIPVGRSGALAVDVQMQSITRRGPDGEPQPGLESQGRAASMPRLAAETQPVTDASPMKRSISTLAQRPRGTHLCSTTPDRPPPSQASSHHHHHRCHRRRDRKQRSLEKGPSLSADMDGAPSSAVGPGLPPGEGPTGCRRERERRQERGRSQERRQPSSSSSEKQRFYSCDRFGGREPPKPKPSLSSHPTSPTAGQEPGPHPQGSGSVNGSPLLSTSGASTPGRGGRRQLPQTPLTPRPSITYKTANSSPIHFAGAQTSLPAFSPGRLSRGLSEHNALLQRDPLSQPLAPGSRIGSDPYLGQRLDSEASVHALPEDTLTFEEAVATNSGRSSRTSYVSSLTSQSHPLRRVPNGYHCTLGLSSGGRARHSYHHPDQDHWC
Sequence (P54284 whole entry partner): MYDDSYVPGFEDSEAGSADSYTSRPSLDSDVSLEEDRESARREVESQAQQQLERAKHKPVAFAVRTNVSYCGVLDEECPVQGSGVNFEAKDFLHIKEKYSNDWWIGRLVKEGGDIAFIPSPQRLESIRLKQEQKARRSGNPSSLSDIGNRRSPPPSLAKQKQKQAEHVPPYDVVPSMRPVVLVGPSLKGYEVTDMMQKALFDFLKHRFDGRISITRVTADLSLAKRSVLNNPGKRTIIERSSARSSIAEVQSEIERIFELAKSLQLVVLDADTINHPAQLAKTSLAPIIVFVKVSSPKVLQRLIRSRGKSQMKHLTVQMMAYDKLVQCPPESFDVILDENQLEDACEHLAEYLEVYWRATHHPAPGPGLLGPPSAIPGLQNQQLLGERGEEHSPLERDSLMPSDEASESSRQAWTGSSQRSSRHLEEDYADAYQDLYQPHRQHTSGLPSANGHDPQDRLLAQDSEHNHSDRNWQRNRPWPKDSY
Sequence (P54289 25-956 partner limits assumed): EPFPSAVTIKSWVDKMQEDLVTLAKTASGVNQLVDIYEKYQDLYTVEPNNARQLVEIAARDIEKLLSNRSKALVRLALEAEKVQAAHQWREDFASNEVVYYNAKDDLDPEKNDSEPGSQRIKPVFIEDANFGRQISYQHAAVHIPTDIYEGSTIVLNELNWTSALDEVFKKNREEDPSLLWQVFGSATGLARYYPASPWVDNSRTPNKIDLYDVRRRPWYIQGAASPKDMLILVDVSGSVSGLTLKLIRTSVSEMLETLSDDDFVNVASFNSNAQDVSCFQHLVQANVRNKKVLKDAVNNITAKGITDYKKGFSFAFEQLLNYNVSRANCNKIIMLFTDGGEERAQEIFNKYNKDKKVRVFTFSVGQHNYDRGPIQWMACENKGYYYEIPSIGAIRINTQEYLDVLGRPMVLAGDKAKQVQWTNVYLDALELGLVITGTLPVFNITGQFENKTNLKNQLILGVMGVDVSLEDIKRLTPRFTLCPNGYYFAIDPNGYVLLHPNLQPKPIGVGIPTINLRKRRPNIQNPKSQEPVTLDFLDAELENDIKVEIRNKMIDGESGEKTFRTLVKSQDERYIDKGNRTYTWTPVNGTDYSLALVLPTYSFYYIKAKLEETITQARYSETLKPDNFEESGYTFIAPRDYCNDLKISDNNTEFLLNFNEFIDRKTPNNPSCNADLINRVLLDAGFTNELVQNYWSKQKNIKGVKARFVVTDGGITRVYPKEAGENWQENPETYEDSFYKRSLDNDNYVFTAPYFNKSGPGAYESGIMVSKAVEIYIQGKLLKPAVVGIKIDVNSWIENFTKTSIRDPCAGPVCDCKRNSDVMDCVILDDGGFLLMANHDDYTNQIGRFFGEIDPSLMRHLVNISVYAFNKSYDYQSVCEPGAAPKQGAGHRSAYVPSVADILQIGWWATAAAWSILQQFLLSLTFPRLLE
Sequence (P54289 957-1103 partner limits assumed): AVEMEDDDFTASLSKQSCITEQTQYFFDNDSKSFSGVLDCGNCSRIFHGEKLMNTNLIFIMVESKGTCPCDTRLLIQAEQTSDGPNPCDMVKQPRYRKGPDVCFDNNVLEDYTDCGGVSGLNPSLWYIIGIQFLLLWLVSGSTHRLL
protocol.description: FLIPR calcium mobilization (and/or electrophysiological) assay for N-type calcium channel
particulars: calcium mobilization and/or electrophysiological in vitro assay; differentiated IMR32 cells, 90 mM KCl, 5 μM nitrendipine
Experimental: Unless noted otherwise, cell culture reagents were purchased from Life Technologies of Rockville, Md. […] One day prior to performing this assay, differentiated IMR32 cells were treated with 1× CellStripper, and seeded on poly-D-lysine-coated 96-well clear-bottom black plates (Becton Dickinson, Franklin Lakes, N.J.) at 200,000 cells/well. […] Plates were then transferred to a Fluorimetric Imaging Plate Reader (FLIPR^96, Molecular Devices, Inc., Sunnyvale, Calif.) for assay. […]
pIC50: −log10 of the molar value. Counter-ions that a name gives are not always drawn.
assay.endpoint: pIC50

Examples with their reported pIC50 follow.
1) N[C@@H](C(=O)N1CCC(N(C2CC2)S(=O)(=O)c2cccc(C(F)(F)F)c2)CC1)C1CCCCC1; 6.36
2) NC(Cc1ccc(F)cc1)C(=O)N1CCC(N(C2CC2)S(=O)(=O)c2cccc(C(F)(F)F)c2)CC1 (stereo not shown); 6.74
3) CN[C@@H](CC(C)C)C(=O)N1CCC(N(C2CC2)S(=O)(=O)c2cccc(C#N)c2)CC1; 5.37

(a) CC(C)C[C@H](N)C(=O)N1CCC(N(C2CC2)S(=O)(=O)c2ccccc2)CC1
(b) CCCc1ccc(S(=O)(=O)N2CCC(N(C3CC3)S(=O)(=O)c3cccc(C(F)(F)F)c3)CC2)cc1
(c) O=C(CCC(c1ccc(F)cc1)c1ccc(F)cc1)N1CCC(N(C2CC2)S(=O)(=O)c2cccc(F)c2)CC1
(d) O=S(=O)(c1cccc(C(F)(F)F)c1)N(C1CC1)C1CCN(CCCC(c2ccc(F)cc2)c2ccc(F)cc2)CC1
(e) CN[C@@H](CC(C)C)C(=O)N1CCC(N(C2CC2)S(=O)(=O)c2cccc(Cl)c2)CC1
Form: Sort by [pIC50] Order [ ascending ] List the labels according to the requested ordering.
a, e, c, b, d
(a: 5.37, e: 5.58, c: 6.01, b: 6.36, d: 6.96)

(1) O=C(CCC(=O)N1CCC(N(C2CC2)S(=O)(=O)c2ccccc2)CC1)c1ccc(F)cc1
(2) O=S(=O)(c1cccc(C(F)(F)F)c1)N(C1CC1)C1CCN(Cc2ccnc3ccccc23)CC1
(3) O=C(C1Cc2ccccc2CN1)N1CCC(N(C2CC2)S(=O)(=O)c2cccc(C(F)(F)F)c2)CC1 (stereo not shown)
Arrange the 3 compounds from largest to smallest pIC50. List the labels according to the requested ordering.
2, 3, 1
(2: 6.07, 3: 5.80, 1: 5.21)

(I) CN[C@@H](CC(C)C)C(=O)N1CCC(N(CC(C)C)S(=O)(=O)c2cccc(C(F)(F)F)c2)CC1
(II) CNC(Cc1ccccc1C)C(=O)N1CCC(N(C2CC2)S(=O)(=O)c2cccc(C(F)(F)F)c2)CC1 (stereo not shown)
Short answer wanted: higher pIC50, I or II ? // return label of chosen record
II

(a) CCCC=CC(=O)N1CCC(N(C2CC2)S(=O)(=O)c2cccc(C(F)(F)F)c2)CC1
(b) CN[C@@H](CC(C)C)C(=O)N1CCC(N(CCO)S(=O)(=O)c2cccc(C(F)(F)F)c2)CC1 [hydrochloride]
Short answer wanted: higher pIC50, a or b ? // return label of chosen record
a
(a: 5.92, b: 5.65)

(I) CN[C@@H](CC(C)C)C(=O)N1CCC(N(CC2CC2)S(=O)(=O)c2cccc(C(F)(F)F)c2)CC1 [fumarate]
(II) CN[C@@H](CC(C)C)C(=O)N1CCC(N(C2CC2)S(=O)(=O)c2cccc(C(F)(F)F)c2)CC1
Would you kindly point out which of I and II has the smaller pIC50 figure? // return label of chosen record
I
(I: 5.88, II: 6.44)

(A) CN[C@@H](CC(C)C)C(=O)N1CCC(N(C(C)C)S(=O)(=O)c2cccc(C(F)(F)F)c2)CC1 [fumarate]
(B) COc1ccc(C(=O)N2CCC(N(C3CC3)S(=O)(=O)c3cccc(C(F)(F)F)c3)CC2)cc1C(F)(F)F
Short answer wanted: higher pIC50, A or B ? // return label of chosen record
B
(B: 6.52, A: 6.06)

(P) O=C(CC=C(c1ccc(F)cc1)c1ccc(F)cc1)N1CCC(N(C2CC2)S(=O)(=O)c2ccccc2)CC1
(Q) CCCC(CC(=O)N1CCC(N(C2CC2)S(=O)(=O)c2cccc(C(F)(F)F)c2)CC1)N1CCSCC1 (stereo not shown)
Would you kindly point out which of P and Q has the smaller pIC50 figure? // return label of chosen record
P
(P: 5.91, Q: 6.55)

(1) CN[C@@H](CC(C)C)C(=O)N1CCC(N(C2CCOC2)S(=O)(=O)c2cccc(C(F)(F)F)c2)CC1 (stereo partly shown) [fumarate]
(2) CN[C@@H](CC(C)C)C(=O)N1CCC(N(C2CC2)S(=O)(=O)c2cccc(F)c2)CC1
Would you kindly point out which of 1 and 2 has the smaller pIC50 figure? // return label of chosen record
2
